Biological target: Mitogen-activated protein kinase 1 (Homo sapiens)
Sequence (P28482 whole entry): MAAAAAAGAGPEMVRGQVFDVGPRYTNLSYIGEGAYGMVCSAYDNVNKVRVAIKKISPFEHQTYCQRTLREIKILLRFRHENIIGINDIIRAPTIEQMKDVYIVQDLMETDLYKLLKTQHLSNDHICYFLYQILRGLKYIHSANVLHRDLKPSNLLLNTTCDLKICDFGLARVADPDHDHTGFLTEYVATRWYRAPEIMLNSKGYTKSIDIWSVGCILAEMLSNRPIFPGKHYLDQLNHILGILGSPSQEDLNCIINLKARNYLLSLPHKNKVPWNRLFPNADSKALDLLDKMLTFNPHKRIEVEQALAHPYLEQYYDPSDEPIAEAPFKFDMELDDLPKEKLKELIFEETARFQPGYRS
Test: Assay 1

| STRUCTURE STRING | UNIT LABEL | Ki |
| --- | --- | --- |
| Cc1cnc(N[C@@H](CO)CC2CC2)nc1-c1c[nH]c(C(=O)N[C@H](CO)c2ccccc2)c1 | nM | 4 |
| Cc1cnc(N[C@H]2CCOC2)nc1-c1c[nH]c(C(=O)N[C@H](CO)c2cccc(Cl)c2)c1 | nM | 209 |
| Cc1cnc(Nc2cccc3c2CCC3)nc1-c1c[nH]c(C(=O)N[C@H](CO)c2ccccc2)c1 | nM | 3 |
| Cc1cnc(NOCC(C)C)nc1-c1c[nH]c(C(=O)N[C@H](CO)c2cccc(Cl)c2)c1 | nM | 14 |
| Cc1cnc(N)nc1-c1c[nH]c(C(=O)NCc2cccc(F)c2)c1 | nM | 1260 |
| Cc1cnc(N[C@@H](C)CO)nc1-c1cc(C(=O)N[C@H](CO)c2ccccc2)n(C)c1 | nM | 6 |
| CC[C@@H](COC(=O)C(C)(C)N)Nc1ncc(C)c(-c2c[nH]c(C(=O)N[C@H](COC(=O)C(C)(C)N)c3cccc(Cl)c3)c2)n1 | nM | 200 |
| Cc1cnc(NC[C@H]2CCCO2)nc1-c1c[nH]c(C(=O)N[C@H](CO)c2ccccc2)c1 | nM | 14 |

---

Molecular target: Mitogen-activated protein kinase 1 (Homo sapiens)
Assay: Assay 1
pKi: −log10 of the molar value.
Threshold rule: pKi greater than or equal to 8 is 1.0; below that, 0.0.

| COMPOUND | QUALITATIVE LABEL |
| --- | --- |
| Cc1csc(Nc2ncc(C)c(-c3c[nH]c(C(=O)N[C@H](CO)c4cccc(Cl)c4)c3)n2)n1 [erk000652] | 1.0 |
| CCNc1ncc(C)c(-c2c[nH]c(C(=O)N[C@H](CO)c3cccc(Cl)c3)c2)n1 [erk000635] | 1.0 |
| Nc1nccc(-c2c[nH]c(C(=O)N(CCO)Cc3ccccc3)c2)n1 [erk000543] | 0.0 |
| Cc1cnc(N)nc1-c1c[nH]c(C(=O)NCc2ccc(Cl)cc2Cl)c1 [erk000055] | 0.0 |
| CCc1cnc(N)nc1-c1c[nH]c(C(=O)NCc2cccc3ccccc23)c1 [erk000070] | 0.0 |

---

Biological target: Mitogen-activated protein kinase 1 (Homo sapiens)
Assay: Assay 1
pKi: −log10 of the molar value.
Item-by-item account of pKi
MEASUREMENT TYPE: pKi

| STRUCTURE STRING | MEAS VALUE |
| --- | --- |
| CCSc1ncc(C)c(-c2c[nH]c(C(=O)N[C@H](CO)c3ccccc3)c2)n1 | 7.19 |
| Cc1cnc(NN2CCOCC2)nc1-c1c[nH]c(C(=O)N[C@H](CO)c2cccc(Cl)c2)c1 | 8.70 |
| CC[C@@H](CO)Nc1cc(-c2c[nH]c(C(=O)N[C@H](CO)c3cccc(Cl)c3)c2)ncn1 | 7.74 |
| Cc1cnc(N)nc1-c1c[nH]c(C(=O)NCc2ccc(Cl)cc2)c1 | 6.21 |
| CC[C@@H](COC)Nc1ncc(C)c(-c2c[nH]c(C(=O)N[C@H](CO)c3ccccc3)c2)n1 | 7.57 |
| Cc1cccc([C@@H](CO)NC(=O)c2cc(-c3nc(NOCC(F)(F)F)ncc3C)c[nH]2)c1 | 8.40 |
| Cc1cnc(NN(C)C)nc1-c1c[nH]c(C(=O)N[C@H](CO)c2ccccc2)c1 | 8.15 |
| Cc1cnc(Nc2ccccc2)nc1-c1c[nH]c(C(=O)N[C@@H](CO)c2ccc(F)c(Cl)c2)c1 | 8.40 |
| Cc1cnc(NN(C)C)nc1-c1c[nH]c(C(=O)N[C@H](CO)c2cccc(Cl)c2)c1 | 7.59 |
| Cc1cccc([C@@H](CO)NC(=O)c2cc(-c3nc(N[C@@H]4CCOC4)ncc3C)c[nH]2)c1 | 8.00 |
| Cc1cnc(NCC(C)C)nc1-c1c[nH]c(C(=O)N[C@H](CO)c2ccccc2)c1 | 8.52 |
| CNc1ncc(C)c(-c2c[nH]c(C(=O)NCc3ccccc3)c2)n1 | 6.11 |
| CCNc1ncc(C)c(-c2c[nH]c(C(=O)NCc3cccc(OC)c3)c2)n1 | 7.28 |
| Cc1ncc(C)c(-c2c[nH]c(C(=O)N[C@H](CO)c3ccccc3)c2)n1 | 6.59 |
| Cc1cnc(Nc2ccc3ncsc3c2)nc1-c1c[nH]c(C(=O)N[C@H](CO)c2cccc(Cl)c2)c1 | 7.15 |
| CCNc1ncc(C)c(-c2c[nH]c(C(=O)NCc3ccc(O)c(O)c3)c2)n1 | 6.37 |
| CC[C@@H](COC(=O)CCC(=O)O)Nc1ncc(C)c(-c2c[nH]c(C(=O)N[C@H](COC(=O)CCC(=O)O)c3cccc(Cl)c3)c2)n1 | 6.93 |
